Test system: gene editing with dCas9
MEASUREMENT_DESCRIPTION: Screen of 322 new SSAP proteins, gene editing activity with dCas9 (Table 5)
Type: cell-based
CONDITION_DETAILS: normalized
Text: 322 new SSAP proteins were identified from sequence data, synthesized, and screened for activity with Cas9 and dCas9. Gene editing activities are shown below in Table 5, followed by amino acid sequences of the proteins.
TEST_READOUT: dCas9 with SSAP activity (normalized)

{"columns": ["MOLECULE", "TEST_READOUT", "ASSAY_VALUE"],
 "data": [
  ["SSAP_119: SEQ ID NO: 288; Bacillus albus (protein, listed as Bacillus albus) ATNEKLKNQLANRKESAPATPEQTVEAYMKKMAPKMAEVLPKHMDMGRMSRMALTTMRTSPKLLNCTVSSLMGAVMQAVQLGLEPGLLGHCYILPYKGEATFIIGYKGMIDLARRSGHIQSIYAHAVHENDEFDYELGLHPKLEHKPVHGDRGAFVGAYAVAHFKDGGYQMEFMPKSEIEKRRKRSASANSSFSPWKSDYEEMAKKTVIRYIFKYLPISIEVQLLAAQDEVVRKDITEEPEFIEADPIDVEQPTTEGDGQQEFSIEE", "dCas9 with SSAP activity (normalized)", "−0.361"],
  ["SSAP_182: SEQ ID NO: 351; Lacrimispora sphenoides (protein, Lacrimispora sphenoides) ADVKQELEKRAAGSGGQSVKLTKNMTIVDMVKALEPEIKRALPCILTPERFSRMALSAINNTPKLGECTPMSFIAALMNAAQLGLEPNTPLGQAYLIPYKNKGVLECQFQLGYRGLIDLAYRNERMQSIEAQVVYDNDEFSYELGLHPSLIHRPTFDEPGEIQAFYAIFRLDNGGFRFEVMSKNYVDSLCHALFKSIYFRFQSLEK", "dCas9 with SSAP activity (normalized)", "−0.742"],
  ["SSAP_93: SEQ ID NO: 262; Morganella morganii (protein, listed as Morganella morganii) SNPPIAQADLQKAQGTAVKEKTKDQQLIQFINQPGMKAQLAAALPRHITPDRMIRIVTTEIRKTPSLATCDMQSFIGAVVQCSQLGLEPGNALGHAYLLPFGNGKAASGQSNVQLIIGYRGMIDLARRSGQIISISARTVREGDSFHFEYGLNEDLTHVPGENDSGPITHVYAVARLKEGGVQFEVMSFSQIEKVRDSSKAGKNGPWVSHWEEMAKKTVIRRLFKYLPVSIEMQRAVILDEKAEANVDQEHASIFEGEYETVSPE", "dCas9 with SSAP activity (normalized)", "−0.557"],
  ["SSAP_1: SEQ ID NO: 172 (protein) ATNESLKNQLSTKKETGLGSAGNTIKGLMNSPAIKKRFEEVLKQRAPQYMSSIVNLVNSDINLKKCDQMSVVASCMVAATLDLPVDKNLGYAWVVPYGNKAQFQLGYKGYVQLALRTGQYKSINVIEIHEGELIDWNPLTEELKIDFSKKESDAVIGYAGYFELLNGFKKSTYWTKEQITKHKNKFSKSDFGWKKDFDAMARKTVLRNMLSKWGILSIEMQNAYTADQGIIKNEIIETGEVKENIEYIEADFESYEDNSIEEGGANE", "dCas9 with SSAP activity (normalized)", "−0.496"],
  ["SSAP_65: SEQ ID NO: 234 (protein) TQDLATAIADQQPAQRRTAFDLVESMRGELHKALPEHASIDNFLRLALTELKMNPQLGNCSGESLLGALMTAARVGLEVGGPLGQFYLTPRRLKRDGWAVVPIVGYRGLITLARRAGVGQVNAVVVHEGDTFREGASSERGFFFDWEPAVERGKPVGALAAARLAGGDVQHRYLSLAEVHERRDRGGFKDGSNSPWATDYDAMVRKTALRALVPLLPQSTALSFAVQADEQVQRYDAGDIDIPALDETDTEDTK", "dCas9 with SSAP activity (normalized)", "−0.746"],
  ["SSAP_306: SEQ ID NO: 475; Paenibacillus gorillae (protein, listed as Paenibacillus gorillae) LEAKHDALPSGFNAVRFVQNCKAYLPEVRNFERFNPDEIALQFLKGAILGLDFLAKECHVITEGSAARFQTDYKGEMKLAMKHSVRPLLNIYAKNVREGDVFRESVVEGRPVVSFDPLPFNNSKIIGSFAVAQFNDGGMDYESMSSTEIESIRTHYGKNPGSDTWEKSQGEMYKRTALRRLCKTIEIDFDAEQRLAFDAGSSFEFNREPRPQQQSPLNLESEVLTDEVEQG", "dCas9 with SSAP activity (normalized)", "−0.905"],
  ["SSAP_158: SEQ ID NO: 327; Nakamurella lactea (protein, Nakamurella lacteal, Nakamurella lactea) ASNLAARAAEQVEQQTAPNRPPTIKEQIGRMESQFALAMPRGSEAAQLVRDAITAINTNPQLAECTPASVLGALMTCAQLGLRPGVLGHAWVLPFRSKGVMQAQLVIGYQGLVELAHRTGQVASLIAREVHERDHFDVDYGLADSLIHKPLLNGDRGPVTGYYAIVKFKGGGHSFIYASKADVEAHRDKFSKMKSFGPWVDNFDSMALKTVVRMLAKWMPKSTEFANAISADEGVRVDYSPTADVAQATEYVQPQLEEAPVEGVVVSEGGES", "dCas9 with SSAP activity (normalized)", "−1.386"],
  ["SSAP_20: SEQ ID NO: 189; CK3_26380 butyrate-producing bacterium SS3/4 (protein, butyrate-producing bacterium SS3/4) ENATAVQQAESQGTQDFSAPVKHNTDFSLGIFGSSDNFLMATQMAKAFASSTIVPKEYQGNFANGLVAMDIANRLKTSPFMVMQNLDVIQGRPAWRATFLIAMINRSKKYDIELQFEEKRDKNGKPYSCTCWTTKDGRKVTGIEVTMDMAEAEGWTKKNGSKWITMPQVMLRYRAASFFSRMNCPELSNGLYTTDEVYEMADSEYKVYNLEDEVKRDLAQNANKEEFVAPPNETAPESESKGSEPLDPAVENQKSGDTPDWMKPETM", "dCas9 with SSAP activity (normalized)", "−0.615"]
]}
